Test system: P. falciparum chloroquine resistant strain (RKL-9)
method: WHO Mark III schizont maturation inhibition assay, chloroquine resistant strain
Format: cell-based, Plasmodium falciparum
condition info: schizont maturation, 24 h, ring stage
Listed next: entries and their corresponding P. falciparum Chloroquine^R Strain (RKL-9) IC90.
property label: P. falciparum Chloroquine^R Strain (RKL-9) IC90

> print(dat)
                                         mol                       experimental.target  value.observed
 1  COc1ccc(/C=C/C(=O)c2cc(OC)c(OC)c(OC)c2)cc1OC  P. falciparum chloroquine resistant strain (RKL-9)      0.67 µg/mL
 2  COc1cc(C(=O)/C=C/c2ccc3c(c2)OCO3)cc(OC)c1OC  P. falciparum chloroquine resistant strain (RKL-9)      5.31 µg/mL
 3  COc1cc(OC)c(C(=O)/C=C/c2ccc(OC)c(OC)c2)c(OC)c1  P. falciparum chloroquine resistant strain (RKL-9)      1.42 µg/mL
 4  COc1ccc(/C=C/C(=O)c2cc(OC)c(OC)c(OC)c2)cc1  P. falciparum chloroquine resistant strain (RKL-9)      0.98 µg/mL
 5     COc1cc(C(=O)C=Cc2ccc(F)cc2)cc(OC)c1OC  P. falciparum chloroquine resistant strain (RKL-9)      2.26 µg/mL
 6        COc1ccc(C=CC(=O)c2cc(OC)ccc2OC)cc1  P. falciparum chloroquine resistant strain (RKL-9)      0.36 µg/mL
 7     O=C(/C=C/c1cc2ccccc2[nH]1)c1ccc(I)cc1  P. falciparum chloroquine resistant strain (RKL-9)      0.81 µg/mL
 8   COc1ccc(OC)c(C(=O)C=Cc2ccc3c(c2)OCO3)c1  P. falciparum chloroquine resistant strain (RKL-9)      1.15 µg/mL
 9  COc1cc(C(=O)C=Cc2ccc(N(C)C)cc2)cc(OC)c1OC  P. falciparum chloroquine resistant strain (RKL-9)      0.92 µg/mL
10    O=C(/C=C/c1cc2ccccc2[nH]1)c1ccc(Cl)cc1  P. falciparum chloroquine resistant strain (RKL-9)      0.95 µg/mL

---

Endpoint: HeLa Cell CC50. System: HeLa cell line. Items follow.
property label: HeLa Cell CC50 (µg/mL)

> print(dat)
                                   compound  property.label   unit  value.observed
1  COc1cc(C(=O)/C=C/c2ccc3c(c2)OCO3)cc(OC)c1OC [Chalcone 8]  HeLa Cell CC50  µg/mL            2.20
2  COc1ccc(/C=C/C(=O)c2cc(OC)c(OC)c(OC)c2)cc1 [Chalcone 6]  HeLa Cell CC50  µg/mL            1.66
3  COc1ccc(OC)c(C(=O)C=Cc2ccc3c(c2)OCO3)c1 [Chalcone 3]  HeLa Cell CC50  µg/mL            7.79
4  O=C(/C=C/c1cc2ccccc2[nH]1)c1ccc(I)cc1 [Chalcone 10]  HeLa Cell CC50  µg/mL            1.88
5  COc1cc(C(=O)C=Cc2ccc(N(C)C)cc2)cc(OC)c1OC [Chalcone 5]  HeLa Cell CC50  µg/mL            8.45
6  COc1ccc(C=CC(=O)c2cc(OC)ccc2OC)cc1 [Chalcone 2]  HeLa Cell CC50  µg/mL            1.06
7  COc1cc(OC)c(C(=O)/C=C/c2ccc(OC)c(OC)c2)c(OC)c1 [Chalcone 1]  HeLa Cell CC50  µg/mL            4.36
8  COc1cc(C(=O)C=Cc2ccc(F)cc2)cc(OC)c1OC [Chalcone 4]  HeLa Cell CC50  µg/mL            0.84

---

method: MTT cytotoxicity / cell viability assay
condition info: human, HeLa cells
Structures can show the parent of a compound that is named as a salt.
property label: viability at 24 h, 12.5 µg/mL (%)

> print(dat)
                                   molecule  value.observed
1  C=C[C@H]1C[N@@]2CC[C@H]1C[C@H]2[C@H](O)c1ccnc2ccc(OC)cc12 [QNN, quinine hydrochloride, reference compound]            62.6

---

Listed next: entries and their corresponding Amount of haemozoin production.
System: haemozoin (β-haematin) production in P. falciparum cultures
method: Haemozoin inhibition assay in P. falciparum cultures
Assay type: cell-based, Plasmodium falciparum
condition info: drug near IC50 concentration, 48 h; untreated control 547.61 ± 9.52
property label: Amount of haemozoin production (ng/mL)

> print(dat)
                                   compound                       experimental.target   unit  value.observed
1  COc1ccc(/C=C/C(=O)c2cc(OC)c(OC)c(OC)c2)cc1  haemozoin (β-haematin) production in P. falciparum cultures  ng/mL          457.14
2        COc1ccc(C=CC(=O)c2cc(OC)ccc2OC)cc1  haemozoin (β-haematin) production in P. falciparum cultures  ng/mL          464.28
3  COc1ccc(/C=C/C(=O)c2cc(OC)c(OC)c(OC)c2)cc1OC  haemozoin (β-haematin) production in P. falciparum cultures  ng/mL          385.71
4  CCN(CC)CCCC(C)Nc1ccnc2cc(Cl)ccc12 (stereo not shown) [CHL, chloroquine, reference compound]  haemozoin (β-haematin) production in P. falciparum cultures  ng/mL          359.52

---

method: in vitro
property label: hemolysis at 3 h, 12.5 ng/mL (%)

> print(dat)
                                   compound                property.label  value.observed
1  C[C@@H]1CC[C@H]2[C@@H](C)C(=O)O[C@@H]3O[C@@]4(C)CC[C@@H]1[C@]32OO4 [ART, artemisinin, reference compound]  hemolysis at 3 h, 12.5 ng/mL            1.94

---

method: in vitro
Counter-ions that a name gives are not always drawn.
property label: hemolysis at 3 h, 12.5 μg/mL (%)

> print(dat)
                                   compound  value.observed
1  C=C[C@H]1C[N@@]2CC[C@H]1C[C@H]2[C@H](O)c1ccnc2ccc(OC)cc12 [QNN, quinine hydrochloride, reference compound]            2.16

---

method: Haemolysis assay on normal erythrocytes
property label: hemolysis at 3 h, 12.5 μg/mL (%)

> print(dat)
                                   compound                property.label  unit  value.observed
1  CCN(CC)CCCC(C)Nc1ccnc2cc(Cl)ccc12 (stereo not shown) [CHL, chloroquine, reference compound]  hemolysis at 3 h, 12.5 μg/mL     %            0.86
